Target: BACE1 (Homo sapiens (Human), UniProt P56817)
Sequence (P56817 46-501, species assumed): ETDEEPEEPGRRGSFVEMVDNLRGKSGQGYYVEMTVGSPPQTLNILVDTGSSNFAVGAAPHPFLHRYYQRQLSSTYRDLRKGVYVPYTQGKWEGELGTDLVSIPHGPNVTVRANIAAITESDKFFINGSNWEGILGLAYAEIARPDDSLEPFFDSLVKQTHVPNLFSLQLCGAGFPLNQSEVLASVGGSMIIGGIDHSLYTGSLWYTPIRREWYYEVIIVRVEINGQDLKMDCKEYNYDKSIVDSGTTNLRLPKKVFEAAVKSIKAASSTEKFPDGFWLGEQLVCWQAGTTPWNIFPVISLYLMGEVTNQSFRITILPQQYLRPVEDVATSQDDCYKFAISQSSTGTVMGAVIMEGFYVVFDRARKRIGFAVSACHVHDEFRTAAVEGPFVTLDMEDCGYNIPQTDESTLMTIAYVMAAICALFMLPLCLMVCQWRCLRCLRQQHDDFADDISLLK
Test: BACE1 cell assay
Format: cell-based
Conditions: read-out: IC50 IP (μM) BACE1 Cell
Provide the recorded log10(IC50) for the entries that follow.
Heads up: the numbers are on a log10 scale; they represent IC50 in µM.

As a guide, the following entries are already answered.
COC[C@]12C[C@H]1[C@@](C)(c1cc(/C=C(\F)c3cnc(OCCF)cn3)ccc1F)N=C(N)S2 :: 0.22
C[C@]1(c2cc(/C=C(\F)c3ccc(C#N)cn3)ccc2F)N=C(N)S[C@@]2(C(=O)N3CCC(F)(F)CC3)C[C@H]21 :: -2.38
COC[C@H](C)Oc1cnc(/C(F)=C/c2ccc(F)c([C@@]3(C)N=C(N)S[C@@]4(C(=O)N(C)C)C[C@H]43)c2)cn1 :: -1.62
C[C@]1(c2cc(/C=C(\F)c3ccc(C#N)cn3)ccc2F)N=C(N)S[C@@]2(C(=O)N3CCOC4(CC4)C3)C[C@H]21 :: -2.48
CNC(=O)[C@]12C[C@H]1[C@@](C)(c1cc(/C=C(\F)c3cnc(C#CCF)cn3)ccc1F)N=C(N)S2 :: 0.13

Query: Hi! What's the reported log10(IC50) for "C#C[C@H](C)Oc1cnc(/C(F)=C/c2ccc(F)c([C@@]3(C)N=C(N)S[C@@]4(C(C)=O)C[C@H]43)c2)cn1" on BACE1 (Homo sapiens (Human), UniProt P56817)?
Reply: -1.47
